# testedTarget: Human recombinant monoamine oxidase MAO-A (Homo sapiens (Human), UniProt P21397)
# Sequence (P21397 whole entry): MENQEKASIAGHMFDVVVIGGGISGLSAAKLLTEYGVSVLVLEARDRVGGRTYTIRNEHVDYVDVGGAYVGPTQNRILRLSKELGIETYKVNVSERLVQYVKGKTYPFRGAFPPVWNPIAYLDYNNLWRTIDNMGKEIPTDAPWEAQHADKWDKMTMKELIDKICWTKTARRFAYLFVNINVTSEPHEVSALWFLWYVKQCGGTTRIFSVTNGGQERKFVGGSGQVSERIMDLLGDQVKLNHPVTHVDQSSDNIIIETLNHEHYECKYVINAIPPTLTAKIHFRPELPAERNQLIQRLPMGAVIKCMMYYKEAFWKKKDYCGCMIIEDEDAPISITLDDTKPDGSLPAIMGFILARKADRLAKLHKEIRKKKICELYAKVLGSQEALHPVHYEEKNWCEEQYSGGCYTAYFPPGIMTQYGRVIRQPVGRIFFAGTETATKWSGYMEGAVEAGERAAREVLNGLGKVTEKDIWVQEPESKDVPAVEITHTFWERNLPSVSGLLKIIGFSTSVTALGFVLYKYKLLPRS
# assayOverview: Monoamine oxidase assay (kynuramine to 4-hydroxyquinoline fluorescence), MAO-A
# Assay type: biochemical
# testParameters: Table 2
Structures can show the parent of a compound that is named as a salt.
measurementLabel: IC50

N[C@H]1CC[C@H](N[C@@H]2C[C@H]2c2ccccc2)CC1 [Example 5, hydrochloride] ... > 100 µM
NC1CCC(N[C@@H]2C[C@@H]2c2ccccc2)CC1 (relative stereo) ... 5.23 µM
N[C@H]1CC[C@@H](N[C@@H]2C[C@H]2c2ccccc2)CC1 [Example 4, hydrochloride] ... > 100 µM
Cl.N[C@H]1CC[C@H](N[C@H]2C[C@@H]2c2ccccc2)CC1 [Example 3, hydrochloride] ... > 100 µM
N[C@H]1CC[C@@H](N[C@H]2C[C@@H]2c2ccccc2)CC1 [Example 2, hydrochloride] ... > 100 µM

Q: Given the molecule NC1CCC(N[C@H]2C[C@@H]2c2ccccc2)CC1 (mixture of isomers) [Example 1, dihydrochloride] , what is its reported IC50?
A: > 100 µM
